# measured target: Hexose transporter 1 (Plasmodium falciparum)
# assay summary: ST_JUDE_LEISH: Cytotoxicity at 2uM final concentration against transgenic Leishmania Mexicana promastigotes LmPfHT that are glucose transport deficient and complemented with the Plasmodium falciparum hexose transporter. Activity is measured by DNA content using SYBR green in vitro
# Type: functional
So basically: inhibition at 4% or higher? That is fulfilled. Lower than 4%? That is not fulfilled.

-- ask Given the entry CCC[C@@H]([C@@H](CC1CCC(C)CC1)C(=O)N[C@@H](CCCCNC(=O)c1ccccn1)C(=O)Nc1nccs1)N(O)C=O (stereo not given in full) , answer whether its inhibition meets or surpasses 4%.
-- reply fulfilled

-- ask Does inhibition meet or surpass 4% for O=C(Nc1cccc(F)c1)N[C@H]1CCN(CCCCCNC(=O)C2CC2c2ccc(Cl)c(Cl)c2)C1 (stereo not given in full) ?
-- reply not fulfilled

-- ask Please tell me: is the molecule `CN1CCC[C@H]1COc1ccc(CN2CC[C@H](NC(=O)c3ccc(Cl)c(Cl)c3)C2)c2ccccc12` at or over 4% in terms of inhibition?
-- reply fulfilled

-- ask API: above_or_equal(metric=inhibition, cutoff=4%) for item N#Cc1cccc(Nc2nccc(NCC(O)c3ccc(C(F)(F)F)cc3)n2)c1 (stereo not given)
-- reply not fulfilled

-- ask Kindly determine if inhibition recorded for `Cc1oc(-c2ccccc2)nc1CCOc1ccc(C[C@H](Nc2ccccc2C(=O)c2ccccc2)C(=O)NCc2ccccn2)cc1` is above or exactly 4%.
-- reply fulfilled

Measured values drawn from ChEMBL document CHEMBL3433997 for this set.
